Target: T1, recombinant human activated Factor VII (FVIIa) (human, UniProt P08709 61-212; P08709 213-466, Gla domain: ten glutamate residues may be gamma-carboxylated)
T1 construct: two-chain form after cleavage between Arg152 and Ile153; light chain (Gla, EGF domains) and heavy chain (protease domain) tethered by a disulfide bond; also called rFVIIa; human FVIIa
T1 sequence 1: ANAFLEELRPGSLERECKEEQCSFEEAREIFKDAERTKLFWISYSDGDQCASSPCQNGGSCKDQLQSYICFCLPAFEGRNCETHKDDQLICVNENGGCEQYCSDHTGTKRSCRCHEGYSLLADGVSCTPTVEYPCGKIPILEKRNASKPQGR
T1 sequence 2: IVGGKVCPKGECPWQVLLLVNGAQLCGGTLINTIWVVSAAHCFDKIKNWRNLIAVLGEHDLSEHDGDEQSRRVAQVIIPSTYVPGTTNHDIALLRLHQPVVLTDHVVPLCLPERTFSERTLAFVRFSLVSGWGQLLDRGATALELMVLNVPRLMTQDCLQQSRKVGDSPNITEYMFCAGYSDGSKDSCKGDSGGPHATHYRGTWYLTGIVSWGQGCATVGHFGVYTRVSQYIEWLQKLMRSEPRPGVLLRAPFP
Experiment: Bio-Layer Interferometry (Fortebio), antibody on anti-human tips, FVIIa 25-200 nM
endpoint.label: Kd (nM)
# value in nM; strip the unit string

Challenge: Hello, please tell me recorded Kd for this one: mAb0112 (antibody, human IgG4 S228P, kappa, V domains shown, humanized 11F2 variant, first round) VH: DVQLQESGPGLVEPSQTLSLTCTVSGYSITSDSAWSWIRQFPGKKLEWMGYIQYSGSTNYNPSLKSRVTISRDTSKNQFSLKLSSVTAEDTAVYYCARSVNYYGNSFWVGYWGQGTSVTVSS VL: EIVLTQSPATLSLSPGERATLSCRASQGISDYLHWYQQKPGEAPRLLIKYTSQPATGIPARFSGSGSGTDFTLTISSLEPEDVGVYYCQNGHSFPLTFGAGTKLELKR
Response given: 13
